Biological target: hT2R54 (Homo sapiens, UniProt P59534)
Construct: expressed in transfected cells; it overexpresses a promiscuous G protein
Assay: Cell-based assay for measuring hT2R54 inhibition (FLIPR calcium, Fluo4AM, acetaminophen as bitter agonist)
Details: Table 3; cells stably expressing hT2R54 and a promiscuous G protein; read-out: hT2R54 IC50
pIC50: −log10 of the molar value.

Molecule: CC(=O)c1cc2c(cc1NC(=O)CN1CCN(Cc3ccc(F)cc3)CC1)OCO2
pIC50: 6.22
--
Molecule: CC(=O)c1cc2c(cc1NC(=O)CN1CCN(C(C(N)=O)c3ccccc3)CC1)OCO2 (stereo not shown)
pIC50: 5.75
--
Molecule: CC(=O)c1cc2c(cc1NC(=O)CN1CCN(Cc3ccccn3)CC1)OCO2
pIC50: 6.52
--
Molecule: COc1cc2c(cc1NC(=O)CN1CCN(CC3CCCO3)CC1)OCO2 (stereo not shown)
pIC50: 5.40
--
Molecule: CC(=O)c1cc2c(cc1NC(=O)CN1CCN(Cc3ccccc3)CC1)OCO2
pIC50: 5.97
--
Molecule: CC(=O)c1cc2c(cc1NC(=O)CN1CCN(CC3CCCO3)CC1)OCO2 (stereo not shown)
pIC50: 5.89
--
Molecule: CC(=O)c1cc2c(cc1NC(=O)CN1CCN(Cc3ccccc3F)CC1)OCO2
pIC50: 6.30
--
Molecule: CC(=O)c1cc2c(cc1NC(=O)CN1CCN(Cc3nc4ccccc4s3)CC1)OCO2
pIC50: 5.38
--
Molecule: COc1ccc(F)cc1CN1CCN(CC(=O)Nc2cc3c(cc2C(C)=O)OCO3)CC1
pIC50: 7.05
--
Molecule: CC(=O)c1cc2c(cc1NC(=O)CN1CCN(Cc3cccc(F)c3)CC1)OCO2
pIC50: 6.30

* * *

Molecular target: hT2R54 (Homo sapiens)
Construct: expressed in transfected cells; it overexpresses a promiscuous G protein
Sequence (P59534 1-338): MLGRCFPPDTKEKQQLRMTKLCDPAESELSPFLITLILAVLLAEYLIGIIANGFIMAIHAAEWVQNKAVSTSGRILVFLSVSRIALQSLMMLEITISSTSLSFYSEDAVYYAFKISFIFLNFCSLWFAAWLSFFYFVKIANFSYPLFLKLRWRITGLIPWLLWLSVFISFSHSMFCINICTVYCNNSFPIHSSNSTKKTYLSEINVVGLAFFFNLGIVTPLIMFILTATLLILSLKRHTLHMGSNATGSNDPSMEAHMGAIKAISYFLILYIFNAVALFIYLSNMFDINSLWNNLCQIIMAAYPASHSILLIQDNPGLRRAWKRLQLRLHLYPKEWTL
Experiment: Cell-based assay for measuring hT2R54 inhibition (FLIPR calcium, Fluo4AM, acetaminophen as bitter agonist)
Details: Table 2; cells stably expressing hT2R54 and a promiscuous G protein; read-out: hT2R54 IC50
Measured Quantity: IC50 (nM)

Molecule: COc1cc2c(cc1NC(=O)CN1CCN(C(=O)[C@H]3CCC(=O)O3)CC1)OCO2
Endpoint Value: 1100

Molecule: CC(=O)c1cc2c(cc1NC(=O)CN1CCN(C(=O)c3sccc3C)CC1)OCO2
Endpoint Value: 30

Molecule: COCc1cc(C(=O)N2CCN(CC(=O)Nc3cc4c(cc3C(C)=O)OCO4)CC2)no1
Endpoint Value: 70

Molecule: COCC(C(=O)Nc1cc2c(cc1C(C)=O)OCO2)N1CCN(C(=O)[C@H]2CCCO2)CC1 (stereo partly shown)
Endpoint Value: 1600

* * *

Biological target: hT2R54 (Homo sapiens, UniProt P59534)
Construct: expressed in transfected cells; it overexpresses a promiscuous G protein
Test: Cell-based assay for measuring hT2R54 inhibition (FLIPR calcium, Fluo4AM, acetaminophen as bitter agonist)
Conditions: Table 2; cells stably expressing hT2R54 and a promiscuous G protein; read-out: hT2R54 IC50
pIC50: −log10 of the molar value.
Measured Quantity: pIC50

Compound: COc1cc2c(cc1NC(=O)CN1CCN(C(=O)Cc3ccc(F)cc3)CC1)OCO2
Endpoint Value: 6.05
//
Compound: CC(=O)c1cc2c(cc1NC(=O)CN1CCN(C(=O)c3ccccn3)CC1)OCO2
Endpoint Value: 7.00
//
Compound: COCc1nc(C(=O)N2CCN(CC(=O)Nc3cc4c(cc3OC)OCO4)CC2)cs1
Endpoint Value: 6.58
//
Compound: CC(=O)c1cc2c(cc1NC(=O)CN1CCN(C(=O)c3ccccc3F)CC1)OCO2
Endpoint Value: 7.30
//
Compound: COc1cc2c(cc1NC(=O)CN1CCN(C(=O)c3ccccc3F)CC1)OCO2
Endpoint Value: 6.70
//
Compound: COc1cc2c(cc1NC(=O)CN1CCN(C(=O)CC3CCCO3)CC1)OCO2 (centres unmarked)
Endpoint Value: 6.06
//
Compound: COc1cc2c(cc1NC(=O)CN1CCN(C(=O)C3CCCCC3C)CC1)OCO2 (centres unmarked)
Endpoint Value: 6.00
//
Compound: CC(=O)c1cc2c(cc1NC(=O)CN1CCN(C(=O)c3nc(C)c[nH]3)CC1)OCO2
Endpoint Value: 8.05

* * *

Target: hT2R54 (Homo sapiens, UniProt P59534)
Construct: expressed in transfected cells; it overexpresses a promiscuous G protein
Assay: Cell-based assay for measuring hT2R54 inhibition (FLIPR calcium, Fluo4AM, acetaminophen as bitter agonist)
Conditions: Table 4; cells stably expressing hT2R54 and a promiscuous G protein; read-out: hT2R54 IC50
# maps each entry to its IC50

Compound: COc1cc2c(cc1NC(=O)CN1CCC(O)CC1)OCO2
Units: nM
Relation Sign: <
IC50: 2000
--
Compound: COc1cc2c(cc1NC(=O)CN1CCCC(O)C1)OCO2 (stereo not shown)
Units: nM
Relation Sign: <
IC50: 2000
--
Compound: CCOC(=O)[C@@H]1CCCC[C@H]1N(C)CC(=O)Nc1cc2c(cc1C(C)=O)OCO2
Units: nM
Relation Sign: =
IC50: 2830
--
Compound: COc1cc2c(cc1NC(=O)CN1CCCCC1)OCO2
Units: nM
Relation Sign: =
IC50: 1820
--
Compound: CCOC(=O)C1CN(CC(=O)Nc2cc3c(cc2C(C)=O)OCO3)CCO1 (stereo not shown)
Units: nM
Relation Sign: =
IC50: 13
--
Compound: COc1cc2c(cc1NC(=O)C(C)N1CCOCC1)OCO2 (stereo not shown)
Units: nM
Relation Sign: =
IC50: 1000
--
Compound: CC(=O)c1cc2c(cc1NC(=O)C(C)N1CCC(O)CC1)OCCO2 (stereo not shown)
Units: nM
Relation Sign: =
IC50: 220
--
Compound: CCOC(=O)C1CCCN(CC(=O)Nc2cc3c(cc2C(C)=O)OCCO3)C1 (stereo not shown)
Units: nM
Relation Sign: =
IC50: 24
--
Compound: CC(=O)c1cc2c(cc1NC(=O)CN1CC(C)OC(C)C1)OCO2 (stereo not shown)
Units: nM
Relation Sign: =
IC50: 246
--
Compound: COc1cc2c(cc1NC(=O)CN1CCSCC1)OCO2
Units: nM
Relation Sign: =
IC50: 200
--
Compound: CCOC(=O)C1COCCN1CC(=O)Nc1cc2c(cc1OC)OCO2 (stereo not shown)
Units: nM
Relation Sign: =
IC50: 526
--
Compound: COC1CCN(C(C)(C)C(=O)Nc2cc3c(cc2C(C)=O)OCO3)CC1
Units: nM
Relation Sign: =
IC50: 2140
--
Compound: COC(=O)C1CCN(CC(=O)Nc2cc3c(cc2C(C)=O)OCO3)CC1
Units: nM
Relation Sign: =
IC50: 100
--
Compound: CCOC(=O)C1COCCN1CC(=O)Nc1cc2c(cc1C(C)=O)OCO2 (stereo not shown)
Units: nM
Relation Sign: =
IC50: 79
--
Compound: CC(=O)c1cc2c(cc1NC(=O)CN1CCN(C(=O)OC(C)(C)C)CC1)OCO2
Units: nM
Relation Sign: <
IC50: 1000
--
Compound: COC(=O)CN(C)CC(=O)Nc1cc2c(cc1C(C)=O)OCO2
Units: nM
Relation Sign: =
IC50: 659
--
Compound: COc1cc2c(cc1NC(=O)CN1CCN(C(=O)OC(C)(C)C)CC1)OCO2
Units: nM
Relation Sign: <
IC50: 2000
--
Compound: CCOC(=O)[C@H]1CCCN1CC(=O)Nc1cc2c(cc1C(C)=O)OCO2
Units: nM
Relation Sign: =
IC50: 100
--
Compound: COC1CCCN(CC(=O)Nc2cc3c(cc2C(C)=O)OCO3)C1 (stereo not shown)
Units: nM
Relation Sign: =
IC50: 2

* * *

Target: hT2R54 (Homo sapiens)
Construct: expressed in transfected cells; it overexpresses a promiscuous G protein
Test: Cell-based assay for measuring hT2R54 inhibition (FLIPR calcium, Fluo4AM, acetaminophen as bitter agonist)
Conditions: Table 8; read-out: hT2R54 IC50
pIC50: −log10 of the molar value.
Measured Quantity: pIC50

Compound: CCCOC(=O)N1CCC(CC(=O)Nc2cc3c(cc2C(C)=O)OCO3)CC1 [compound 241]
Relation Sign: =
Endpoint Value: 7.14

Compound: CC(=O)c1cc2c(cc1NC(=O)CC1CCN(C(=O)Cc3ccc(O)cc3)CC1)OCO2 [compound 254]
Relation Sign: =
Endpoint Value: 6.49

Compound: CC(=O)c1cc2c(cc1NC(=O)CC1CCN(C(=O)CC3CCCO3)CC1)OCCO2 (centres unmarked) [compound 475]
Relation Sign: =
Endpoint Value: 6.52

Compound: CC(=O)c1cc2c(cc1NC(=O)CC1CCN(C(=O)C3CC3)C1)OCO2 (centres unmarked) [compound 265]
Relation Sign: =
Endpoint Value: 6.17

Compound: CC(=O)c1cc2c(cc1NC(=O)CC1CCCN(C(=O)C3CCOC3)C1)OCO2 (centres unmarked) [compound 210]
Relation Sign: =
Endpoint Value: 5.87

Compound: CC(=O)c1cc2c(cc1NC(=O)CC1CCN(C(=O)C(C)C)C1)OCO2 (centres unmarked) [compound 261]
Relation Sign: =
Endpoint Value: 6.02

Compound: CCC(=O)N1CCC(CC(=O)Nc2cc3c(cc2C(C)=O)OCO3)C1 (centres unmarked) [compound 259]
Relation Sign: =
Endpoint Value: 5.59

Compound: CC(=O)c1cc2c(cc1NC(=O)CC1CCCN(C(=O)CC(C)C)C1)OCO2 (centres unmarked) [compound 193]
Relation Sign: =
Endpoint Value: 7.77

Compound: COc1cc2c(cc1NC(=O)CC1CCN(C(C)=O)CC1)OCO2 [compound 496]
Relation Sign: <
Endpoint Value: 5.00

Compound: CCCCS(=O)(=O)N1CCCC(CC(=O)Nc2cc3c(cc2C(C)=O)OCO3)C1 (centres unmarked) [compound 225]
Relation Sign: =
Endpoint Value: 7.15

Compound: CC(=O)c1cc2c(cc1NC(=O)CC1CCN(C(=O)C3CCCCC3)C1)OCO2 (centres unmarked) [compound 267]
Relation Sign: =
Endpoint Value: 5.65

Compound: CC(=O)c1cc2c(cc1NC(=O)CC1CCN(C(=O)[C@H]3CCCO3)CC1)OCCO2 [compound 495]
Relation Sign: =
Endpoint Value: 6.70

Compound: COCc1cccc(C(=O)N2CCC(CC(=O)Nc3cc4c(cc3C(C)=O)OCO4)CC2)c1 [compound 245]
Relation Sign: =
Endpoint Value: 7.36

Compound: COc1cc2c(cc1NC(=O)CC1CCN(C(=O)c3nc(C)c[nH]3)CC1)OCO2 [compound 499]
Relation Sign: <
Endpoint Value: 5.00

Compound: COCc1ccc(C(=O)N2CCC(CC(=O)Nc3cc4c(cc3C(C)=O)OCO4)CC2)o1 [compound 468]
Relation Sign: =
Endpoint Value: 7.15

Compound: CC(=O)c1cc2c(cc1NC(=O)CC1CCN(C(=O)C3CC3)CC1)OCO2 [compound 238]
Relation Sign: =
Endpoint Value: 6.33

Compound: COC(=O)c1cc2c(cc1NC(=O)CC1CCN(C(=O)C3CCCO3)CC1)OCO2 (centres unmarked) [compound 482]
Relation Sign: =
Endpoint Value: 5.85
